Efficacy overview
- SYSTEM_NAME: Urotensin-2 receptor (Homo sapiens)
- PROTOCOL: Agonist activity against human urotensin 2 receptor expressed in […] cells assessed as beta-galactosidase activity after 5 days by R-SAT assay relative to Urotensin-2
- Assay type: functional, cell-based

# annotated cases, reported Efficacy shown
COMPOUND: C=CCN(CC=C)c1cccc(C2(CCN(C)C)Cc3ccccc3C(=O)O2)c1 (stereo not given)
Efficacy: 55%

COMPOUND: COc1ccc2c(c1C)CC(CCN(C)C)(c1ccc(Cl)cc1)OC2=O (stereo not given)
Efficacy: 118%

COMPOUND: C=CCN(CC=C)c1ccc2c(c1)CC(CCN(C)C)(c1ccc(Cl)cc1)OC2=O (stereo not given)
Efficacy: 132%

Next:
# Efficacy (compound: CN(C)CCC1(c2ccc(Br)cc2)Cc2ccccc2C(=O)O1 (stereo not given) ) is 127%
